# Target of assay: Human recombinant DHX9 protein (Homo sapiens (Human))
# Sequence (Q08211 whole entry): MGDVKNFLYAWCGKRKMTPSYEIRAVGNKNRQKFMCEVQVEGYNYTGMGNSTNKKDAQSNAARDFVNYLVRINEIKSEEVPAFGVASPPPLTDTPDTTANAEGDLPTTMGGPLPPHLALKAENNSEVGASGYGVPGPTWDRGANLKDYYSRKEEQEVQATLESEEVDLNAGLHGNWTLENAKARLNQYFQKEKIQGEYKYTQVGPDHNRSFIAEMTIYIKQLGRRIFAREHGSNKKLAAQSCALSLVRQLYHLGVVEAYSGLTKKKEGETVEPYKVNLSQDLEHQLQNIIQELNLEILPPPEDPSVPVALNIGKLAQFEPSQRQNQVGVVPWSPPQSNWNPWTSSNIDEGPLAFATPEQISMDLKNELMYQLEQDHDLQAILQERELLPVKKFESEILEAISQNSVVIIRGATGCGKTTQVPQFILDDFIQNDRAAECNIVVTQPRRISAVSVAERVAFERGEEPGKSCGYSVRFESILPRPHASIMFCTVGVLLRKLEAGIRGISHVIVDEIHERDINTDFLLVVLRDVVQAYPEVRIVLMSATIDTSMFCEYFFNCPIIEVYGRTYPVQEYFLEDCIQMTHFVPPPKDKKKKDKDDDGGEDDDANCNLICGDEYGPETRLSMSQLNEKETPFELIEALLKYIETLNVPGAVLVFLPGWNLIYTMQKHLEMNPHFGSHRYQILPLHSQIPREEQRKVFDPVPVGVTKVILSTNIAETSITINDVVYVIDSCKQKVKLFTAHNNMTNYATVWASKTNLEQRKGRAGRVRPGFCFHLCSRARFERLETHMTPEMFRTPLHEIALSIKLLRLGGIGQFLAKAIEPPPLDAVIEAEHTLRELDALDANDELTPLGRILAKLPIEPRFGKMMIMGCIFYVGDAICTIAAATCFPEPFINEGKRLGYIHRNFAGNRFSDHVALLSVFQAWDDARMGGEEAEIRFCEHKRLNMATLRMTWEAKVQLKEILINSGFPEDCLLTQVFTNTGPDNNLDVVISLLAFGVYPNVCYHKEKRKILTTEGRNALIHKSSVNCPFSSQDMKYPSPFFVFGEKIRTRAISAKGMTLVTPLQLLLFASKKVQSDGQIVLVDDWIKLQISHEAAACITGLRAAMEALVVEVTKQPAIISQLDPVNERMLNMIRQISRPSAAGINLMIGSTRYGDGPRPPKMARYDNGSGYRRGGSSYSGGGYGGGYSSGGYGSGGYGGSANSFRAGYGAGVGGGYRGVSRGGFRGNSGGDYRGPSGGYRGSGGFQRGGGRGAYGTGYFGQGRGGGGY
# Assay: DHX9 ATPase assay (ADP-Glo)
# Type: biochemical
Observable: DHX9 Biochemical Max Inhibition (%)

(A) CC(=O)N1CC2(CC(n3cc(C(=O)Nc4cc(Cl)cc(NS(C)(=O)=O)c4)cn3)C2)C1
(B) Cn1cc(C(=O)Nc2cc(Cl)cc(NS(C)(=O)=O)c2)cc1-c1ncc(F)cc1OC(F)F
When the recorded DHX9 Biochemical Max Inhibition values are compared, which is smaller: that of A or that of B ? Indicate your choice by writing its label.
A

----------
# Target of assay: Human recombinant DHX9 protein (Homo sapiens (Human))
# Assay: DHX9 ATPase assay (ADP-Glo)
# Type: biochemical
Observable: DHX9 Biochemical Max Inhibition (%)

compound=CS(=O)(=O)Nc1cc(Cl)cc(NC(=O)c2cnn(-c3ccccc3OCc3cccc(F)c3)c2)c1 observable="DHX9 Biochemical Max Inhibition" endpoint_result=71.3
compound="CS(=O)(=O)Nc1cc(Cl)cc(NC(=O)c2cnn([C@@H]3CC[C@H]3O)c2)c1 (single isomer, unassigned) [Example 306a]" observable="DHX9 Biochemical Max Inhibition" endpoint_result=70.6
compound=CC(=O)N1CCN(c2ccnc(-n3cc(C(=O)Nc4cc(Cl)cc(NS(C)(=O)=O)c4)cn3)c2)CC1 observable="DHX9 Biochemical Max Inhibition" endpoint_result=63.3
compound=CCOc1cnc(-c2csc(C(=O)Nc3cc(Cl)cc(NS(C)(=O)=O)c3)c2)nc1 observable="DHX9 Biochemical Max Inhibition" endpoint_result=73.6
compound=Cc1cc(C(=O)Nc2cc(Cl)cc(NS(C)(=O)=O)c2)cn1-c1ccc(N2CCOC(C)(C)C2)cn1 observable="DHX9 Biochemical Max Inhibition" endpoint_result=71.6
compound=Cc1sc(C(=O)Nc2cc(Cl)cc(NS(C)(=O)=O)c2)cc1-c1ccc(C#N)cn1 observable="DHX9 Biochemical Max Inhibition" endpoint_result=70.6
compound=CN1CCN(c2cnc(-n3cc(C(=O)Nc4cc(Cl)cc(NS(C)(=O)=O)c4)cn3)cn2)CC1=O observable="DHX9 Biochemical Max Inhibition" endpoint_result=66.3
compound=Cc1ccc2sc(C(=O)Nc3cc(Cl)cc(NS(C)(=O)=O)c3)cc2c1 observable="DHX9 Biochemical Max Inhibition" endpoint_result=57.8
compound=CS(=O)(=O)Nc1cc(Cl)cc(NC(=O)c2cc3c(C(F)(F)F)cccc3s2)c1 observable="DHX9 Biochemical Max Inhibition" endpoint_result=58.2
compound=CS(=O)(=O)Nc1cc(Cl)cc(NC(=O)c2cnn(-c3ccc(N4CCCC4=O)cn3)c2)c1 observable="DHX9 Biochemical Max Inhibition" endpoint_result=61.5

(1) CS(=O)(=O)Nc1cc(Cl)cc(NC(=O)c2cc3c(F)c(F)ccc3s2)c1
(2) CS(=O)(=O)Nc1cc(Br)cc(NC(=O)c2cnn(-c3cccc(C#N)c3)c2)c1
Among 1 and 2 , which shows a numerically higher DHX9 Biochemical Max Inhibition result? Use the label to indicate which entry you chose.
1
(1: 63.1%, 2: 37.9%)

----------
# Target of assay: Human recombinant DHX9 protein (Homo sapiens (Human))
# Assay: DHX9 ATPase assay (ADP-Glo)
# Test settings: read-out: DHX9 Biochemical Inflection Point
Observable: IC50 (nM)

Worked examples follow.
compound=CS(=O)(=O)Nc1cc(Cl)cc(NC(=O)c2cc3c(F)cccc3s2)c1 target_of_assay="Human recombinant DHX9 protein (Homo sapiens (Human))" readout_unit=nM endpoint_result=125
compound=CS(=O)(=O)Nc1cc(Br)cc(NC(=O)c2cc(-c3ccccn3)n(CC#N)c2)c1 target_of_assay="Human recombinant DHX9 protein (Homo sapiens (Human))" readout_unit=nM endpoint_result=20.5

(a) Cc1sc(C(=O)Nc2cc(Cl)cc(NS(C)(=O)=O)c2)cc1-c1ccc(N2CC(C(F)(F)F)C2)cn1
(b) CS(=N)(=O)Nc1cc(Br)cc(NC(=O)c2cc(-c3ccccn3)cs2)c1 (stereo not shown)
// max by IC50 over [ a , b ] Answer by quoting the chosen item's label.
b
